meta.source: patent US10538487B2

- assay-method-text: in vivo
- experimental-context: mouse, brain, mice, oral gavage at 20 mg/kg, read-out: Brain/Plasma Ratio
metric-name: Kp at 2 h

INSERT INTO results (molecule, metric_name, value_measured) VALUES
  ('CC(C)(O)c1coc(S(=O)(=O)NC(=O)Nc2c3c(cc4c2CCC4)CCC3)c1 [drawing 335]', 'Kp at 2 h', 0.0117);

###

Overview of recorded concentration at 2 h for various compounds
- assay-method-text: Single dose pharmacokinetic study in mice (iv 4 mg/Kg, po 20 mg/Kg), plasma concentration post-dosing
- Type: in vivo, mouse
- experimental-context: male, C57BL/6, mouse, plasma, iv, 4 mg/kg, mouse, IV 4 mg/Kg, 2.00 h post dosing, individual mice M1-M3; read-out: Plasma concentration, IV Time 2.00 h
metric-name: concentration at 2 h (ng/mL)

INSERT INTO measurements (compound, metric_name, value_measured) VALUES
  ('CC(C)(O)c1coc(S(=O)(=O)NC(=O)Nc2c3c(cc4c2CCC4)CCC3)c1 [MCC_000950_016, reference compound]', 'concentration at 2 h', 7410),
  ('CC(C)n1ccc(S(=O)(=O)NC(=O)Nc2c3c(cc4c2CCC4)CCC3)n1', 'concentration at 2 h', 13300);

###

- system-tested: NLRP3 inflammasome (Homo sapiens, UniProt Q96P20)
- Sequence (Q96P20 whole entry): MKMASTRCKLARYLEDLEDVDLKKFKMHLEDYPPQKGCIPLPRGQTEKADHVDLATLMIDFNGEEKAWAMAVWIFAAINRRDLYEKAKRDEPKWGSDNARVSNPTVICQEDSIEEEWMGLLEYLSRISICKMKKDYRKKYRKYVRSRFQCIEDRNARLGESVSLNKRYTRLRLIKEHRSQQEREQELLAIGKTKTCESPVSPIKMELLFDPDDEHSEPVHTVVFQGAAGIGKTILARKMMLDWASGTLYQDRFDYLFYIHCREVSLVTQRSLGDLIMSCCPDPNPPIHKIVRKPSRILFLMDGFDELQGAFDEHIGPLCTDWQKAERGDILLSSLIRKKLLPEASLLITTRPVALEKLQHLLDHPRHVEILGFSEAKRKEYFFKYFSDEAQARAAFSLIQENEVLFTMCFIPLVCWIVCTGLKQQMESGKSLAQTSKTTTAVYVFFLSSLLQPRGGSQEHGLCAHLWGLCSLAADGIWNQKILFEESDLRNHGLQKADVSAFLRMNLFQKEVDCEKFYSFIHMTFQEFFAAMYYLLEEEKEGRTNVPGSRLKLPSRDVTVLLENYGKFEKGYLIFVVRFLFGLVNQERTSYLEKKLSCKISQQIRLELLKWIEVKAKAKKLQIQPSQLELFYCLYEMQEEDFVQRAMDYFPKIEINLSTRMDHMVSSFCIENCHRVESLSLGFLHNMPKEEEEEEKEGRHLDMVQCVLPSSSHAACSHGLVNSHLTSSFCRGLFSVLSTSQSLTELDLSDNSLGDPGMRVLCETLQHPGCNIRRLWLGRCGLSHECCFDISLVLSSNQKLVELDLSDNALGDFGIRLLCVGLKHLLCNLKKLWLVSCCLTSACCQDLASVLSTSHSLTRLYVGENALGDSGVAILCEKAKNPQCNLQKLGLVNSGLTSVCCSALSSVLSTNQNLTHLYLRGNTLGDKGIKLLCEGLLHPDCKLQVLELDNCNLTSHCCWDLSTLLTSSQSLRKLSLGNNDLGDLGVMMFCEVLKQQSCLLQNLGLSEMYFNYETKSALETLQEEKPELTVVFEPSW
- assay-method-text: Inhibition of IL-1β release, NLRP3 inflammasome activation assay in HMDM
- Format: cell-based
- experimental-context: commercial compounds (Table 9), read-out: HMDM IC50 vs NLRP3
metric-name: IC50

INSERT INTO measurements (compound, value_measured) VALUES
  ('CCCCNC(=O)NS(=O)(=O)c1ccc(C)cc1 [Tolbutamide, reference compound]', '> 200 µM'),
  ('Cc1ccc(S(=O)(=O)NC(=O)NN2CC3CCCC3C2)cc1 (stereo not shown) [Gliclazide, reference compound]', '> 200 µM'),
  ('COc1ccc2c(c1)C(=O)N(CCc1ccc(S(=O)(=O)NC(=O)NC3CCCCC3)cc1)C(=O)C2(C)C [Gliquidone, reference compound]', '32 µM'),
  ('CCCNC(=O)NS(=O)(=O)c1ccc(Cl)cc1 [Chlorpropamide, reference compound]', '> 200 µM'),
  ('CC(=O)c1ccc(S(=O)(=O)NC(=O)NC2CCCCC2)cc1 [Acetohexamide, reference compound]', '> 200 µM'),
  ('COc1ccc2c(c1)C(=O)N(CCc1ccc(S(N)(=O)=O)cc1)C(=O)C2(C)C [Gliquidone precursor, reference compound]', '> 200 µM'),
  ('O=C(Nc1ccc(Cl)cc1)NS(=O)(=O)c1ccc2c(c1)CCC2 [Sulofenur, reference compound]', '> 100 µM');

###

- assay-method-text: Single dose pharmacokinetic study in mice (iv 4 mg/Kg, po 20 mg/Kg), plasma concentration post-dosing
- Type: in vivo, mouse
- experimental-context: male, C57BL/6, mouse, plasma, po, 20 mg/kg, mouse, PO 20 mg/Kg, mean of 3 mice; read-out: MRT0-last, Mean PO
MRT last overview
metric-name: MRT last (h)

INSERT INTO assay_data (compound, measurement_unit, value_measured) VALUES
  ('CC(C)n1ccc(S(=O)(=O)NC(=O)Nc2c3c(cc4c2CCC4)CCC3)n1', 'h', 6.43),
  ('CC(C)(O)c1coc(S(=O)(=O)NC(=O)Nc2c3c(cc4c2CCC4)CCC3)c1 [MCC_000950_016, reference compound]', 'h', 3.6);
